Biological target: hERG channel (Homo sapiens (Human))
Sequence (Q12809 whole entry): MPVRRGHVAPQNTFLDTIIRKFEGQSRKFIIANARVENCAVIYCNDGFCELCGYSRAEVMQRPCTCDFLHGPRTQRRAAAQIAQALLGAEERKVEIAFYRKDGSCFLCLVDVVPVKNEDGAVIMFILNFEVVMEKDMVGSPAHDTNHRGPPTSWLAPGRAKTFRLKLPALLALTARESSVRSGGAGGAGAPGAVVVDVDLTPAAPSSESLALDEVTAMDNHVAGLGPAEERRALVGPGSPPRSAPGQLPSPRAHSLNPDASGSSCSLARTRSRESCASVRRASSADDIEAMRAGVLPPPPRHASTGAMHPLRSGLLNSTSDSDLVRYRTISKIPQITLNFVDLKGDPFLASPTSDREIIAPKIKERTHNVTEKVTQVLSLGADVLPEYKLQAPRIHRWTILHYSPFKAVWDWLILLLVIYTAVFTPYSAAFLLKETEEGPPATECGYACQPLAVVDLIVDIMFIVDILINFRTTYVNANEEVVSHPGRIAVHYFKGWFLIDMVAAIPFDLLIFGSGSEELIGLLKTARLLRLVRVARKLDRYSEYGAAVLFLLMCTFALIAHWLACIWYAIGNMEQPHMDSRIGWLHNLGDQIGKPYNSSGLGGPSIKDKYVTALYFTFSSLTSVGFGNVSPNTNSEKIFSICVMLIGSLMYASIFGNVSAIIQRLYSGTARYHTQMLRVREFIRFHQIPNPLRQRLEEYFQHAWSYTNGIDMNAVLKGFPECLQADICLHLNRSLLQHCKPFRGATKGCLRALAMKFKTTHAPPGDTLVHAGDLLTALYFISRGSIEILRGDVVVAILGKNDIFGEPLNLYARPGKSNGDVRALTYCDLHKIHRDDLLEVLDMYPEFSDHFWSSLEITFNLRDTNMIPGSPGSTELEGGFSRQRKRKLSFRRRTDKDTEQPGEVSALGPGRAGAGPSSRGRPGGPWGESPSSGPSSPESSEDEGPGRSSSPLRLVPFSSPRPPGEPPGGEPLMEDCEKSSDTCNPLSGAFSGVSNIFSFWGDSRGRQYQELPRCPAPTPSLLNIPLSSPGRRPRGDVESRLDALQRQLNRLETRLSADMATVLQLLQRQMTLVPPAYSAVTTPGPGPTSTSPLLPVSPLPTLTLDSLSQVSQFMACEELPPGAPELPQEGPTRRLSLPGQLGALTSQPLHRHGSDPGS
Assay: Test 6-1: inhibitory activity for hERG channel (auto patch clamp, Qpatch)
Assay type: cell-based
Settings: whole cell auto patch clamp, hERG-CHO cells; read-out: hERG inhibition IC50
Give measured IC50 for each item. Keep answers brief.
Give just the numeric value; nM need not be written.

Query: Please give the measured IC50 for this molecule: "Cn1ncc2c1C(=O)N(CCN1CCN(c3nsc4ccccc34)CC1)CCC2"
Response: 4000

Query: Please give the measured IC50 for this molecule: "N#Cc1cc2c(cn1)C(=O)N(CCN1CCN(c3nsc4ccccc34)CC1)CC2"
Response: 1000

Query: Please give the measured IC50 for this molecule: "O=C1c2cccnc2CCN1CCN1CCN(c2nsc3ccccc23)CC1"
Response: 2300

Query: Please give the measured IC50 for this molecule: "O=C1c2c(Br)n[nH]c2CCN1CCN1CCC(c2noc3ccccc23)CC1"
Response: 700

Query: Please give the measured IC50 for this molecule: "O=c1c2ncccc2ccn1CCN1CCN(c2noc3ccccc23)CC1"
Response: 4400

Query: Please give the measured IC50 for this molecule: "Cc1ccc2onc(C3CCN(CCN4CCc5cccnc5C4=O)CC3)c2c1"
Response: 1300

Query: Please give the measured IC50 for this molecule: "CCn1cc2c(n1)CCN(CCN1CCN(c3nsc4ccccc34)CC1)C2=O"
Response: 1400

Query: Please give the measured IC50 for this molecule: Cn1ncc2c1CCCC(CCN1CCN(c3nsc4ccccc34)CC1)C2=O (stereo not shown)
Response: 1200

Query: Please give the measured IC50 for this molecule: "Cc1nccc2c1C(=O)N(CCN1CCC(c3noc4ccccc34)CC1)CC2"
Response: 500

Query: Please give the measured IC50 for this molecule: "CCn1ncc2c1CCN(CCN1CCN(c3nsc4ccccc34)CC1)C2=O"
Response: 7700

Query: Please give the measured IC50 for this molecule: "Cc1nn(C)c2c1C(=O)N(CCN1CCN(c3nsc4ccccc34)CC1)CC2"
Response: 7900

Query: Please give the measured IC50 for this molecule: "Cn1ccc2c1CCCN(CCN1CCN(c3noc4ccccc34)CC1)C2=O"
Response: 11300

Query: Please give the measured IC50 for this molecule: "Cc1cc2c(cn1)C(=O)N(CCN1CCC(c3noc4ccccc34)CC1)CC2"
Response: 700

Query: Please give the measured IC50 for this molecule: "Cc1nc2c(o1)C(=O)N(CCN1CCC(c3noc4ccccc34)CC1)CCC2"
Response: 700

Query: Please give the measured IC50 for this molecule: CC1CN(CCN2CCN(c3noc4ccccc34)CC2)C(=O)c2ccn(C)c21 (stereo not shown)
Response: 8000

Query: Please give the measured IC50 for this molecule: "O=C1c2cnccc2C2(CC2)CN1CCN1CCN(c2noc3ccccc23)CC1"
Response: 6000

Query: Please give the measured IC50 for this molecule: "O=C1c2ncccc2CCN1CCN1CCN(c2noc3cc(F)ccc23)CC1"
Response: 3900

Query: Please give the measured IC50 for this molecule: "O=C1c2ncccc2CCN1CCN1CCN(c2nsc3ccccc23)CC1"
Response: 5200

Query: Please give the measured IC50 for this molecule: "Cc1nc2c(o1)CCCN(CCN1CCC(c3noc4ccccc34)CC1)C2=O"
Response: 1600

Query: Please give the measured IC50 for this molecule: "Cn1cc2c(n1)CCN(CCN1CCC(c3noc4ccccc34)CC1)C2=O"
Response: 1000

Query: Please give the measured IC50 for this molecule: Cc1ncc2c(n1)CCC(CCN1CCC(c3noc4ccccc34)CC1)C2=O (stereo not shown)
Response: 1200

Query: Please give the measured IC50 for this molecule: "Cc1noc2c1C(=O)N(CCN1CCN(c3noc4ccccc34)CC1)CC2"
Response: 5500

Query: Please give the measured IC50 for this molecule: "Cc1c2c(nn1C)CCN(CCN1CCC(c3noc4ccccc34)CC1)C2=O"
Response: 1000

Query: Please give the measured IC50 for this molecule: "O=c1c2cnccc2ccn1CCN1CCN(c2noc3ccccc23)CC1"
Response: 5300
